Record form. Attribute: LLE. Fill in for each entry.
system: human mGlu1 (Homo sapiens)
Sequence (Q13255 19-1194): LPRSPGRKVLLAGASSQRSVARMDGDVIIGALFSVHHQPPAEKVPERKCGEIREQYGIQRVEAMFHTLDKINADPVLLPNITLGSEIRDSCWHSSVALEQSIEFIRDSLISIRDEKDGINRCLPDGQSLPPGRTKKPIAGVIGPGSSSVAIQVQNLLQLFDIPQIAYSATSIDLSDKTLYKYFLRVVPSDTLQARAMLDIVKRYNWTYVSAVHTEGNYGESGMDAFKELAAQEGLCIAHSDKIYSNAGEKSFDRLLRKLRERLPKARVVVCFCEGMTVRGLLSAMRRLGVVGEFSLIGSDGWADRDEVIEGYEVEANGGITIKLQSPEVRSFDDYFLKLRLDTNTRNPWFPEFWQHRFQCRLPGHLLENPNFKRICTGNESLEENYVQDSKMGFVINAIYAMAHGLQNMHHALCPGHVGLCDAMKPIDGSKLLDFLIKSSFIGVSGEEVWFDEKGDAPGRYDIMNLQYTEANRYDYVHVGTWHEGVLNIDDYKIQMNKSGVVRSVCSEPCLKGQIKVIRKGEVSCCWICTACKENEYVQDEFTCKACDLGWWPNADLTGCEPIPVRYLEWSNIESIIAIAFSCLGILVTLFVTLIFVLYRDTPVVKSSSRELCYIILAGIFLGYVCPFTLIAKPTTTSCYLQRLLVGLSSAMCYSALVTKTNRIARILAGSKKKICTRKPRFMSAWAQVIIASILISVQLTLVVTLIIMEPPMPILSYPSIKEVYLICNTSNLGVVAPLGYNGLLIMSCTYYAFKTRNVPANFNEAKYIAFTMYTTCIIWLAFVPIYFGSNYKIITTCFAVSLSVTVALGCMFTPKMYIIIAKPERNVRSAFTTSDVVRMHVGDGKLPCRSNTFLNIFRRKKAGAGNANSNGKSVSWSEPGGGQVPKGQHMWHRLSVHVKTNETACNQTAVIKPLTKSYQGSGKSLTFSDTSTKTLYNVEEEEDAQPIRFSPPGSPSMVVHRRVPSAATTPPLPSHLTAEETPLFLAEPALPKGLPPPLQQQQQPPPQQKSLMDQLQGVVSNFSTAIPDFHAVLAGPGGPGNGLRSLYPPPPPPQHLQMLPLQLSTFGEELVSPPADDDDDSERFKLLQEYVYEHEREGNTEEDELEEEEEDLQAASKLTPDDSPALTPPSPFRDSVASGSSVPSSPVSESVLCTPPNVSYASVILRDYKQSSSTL
procedure_text: Calcium mobilization mGlu1 assay
Format: cell-based
condition: ligand-lipophilicity efficiency = pIC50−cLogP
Reply briefly: the number, and no unit.

What value of LLE has been reported for the following compound? O=C(N1C[C@@H]2CN(c3ccccn3)C[C@@H]2C1)N1CCC2(CCCC2)C1
4.12

What value of LLE has been reported for the following compound? O=C(N1C[C@@H]2CN(c3cnccn3)C[C@@H]2C1)C12CC3CC(CC(C3)C1)C2
1.21

What value of LLE has been reported for the following compound? O=C(N1C[C@@H]2CN(c3cccc(F)n3)C[C@@H]2C1)C12CC3CC(CC(C3)C1)C2
2.50

What value of LLE has been reported for the following compound? N#Cc1ccccc1N1C[C@H]2CN(C(=O)C34CC5CC(CC(C5)C3)C4)C[C@H]2C1
2.18

What value of LLE has been reported for the following compound? O=C(N1C[C@@H]2CN(c3ccc(F)cn3)C[C@@H]2C1)C12CC3CC(CC(C3)C1)C2
1.88

What value of LLE has been reported for the following compound? O=C(N1CCC2(CCCCC2)CC1)N1C[C@@H]2CN(c3ccccn3)C[C@@H]2C1
2.71

What value of LLE has been reported for the following compound? N#Cc1ncccc1N1C[C@H]2CN(C(=O)C34CC5CC(CC(C5)C3)C4)C[C@H]2C1
2.87

What value of LLE has been reported for the following compound? O=C(N1C[C@@H]2CN(c3ccccn3)C[C@@H]2C1)C12CC3CC(CC(C3)C1)C2
2.79
